experiment: folding stability dG unfold (combined trypsin and chymotrypsin); higher = more stable

Record sequence: SAGGSAGGSASMRTITITSSTSPSGPPLPAAELAAELAKEGYTVTDPRRVPAEGKLVFTVVASAGGSAGGSA [r18_466_JUSTAS]
Value operator: <
folding stability dG unfold [kcal/mol]: -1

Record sequence: SGLKPNEVKKFTFSFPVTDPVTGKEVTATVELYVSAGNPFVVVKLTVTPPDGKTETKTFVVPPGATLTIDSA [r9_88_TrMRF]
Value operator: =
folding stability dG unfold [kcal/mol]: 3.2

Record sequence: SAGGIWIPIDRIREALKDGMPLDEIVDKLRKHGFPIDRITGIEPSPNSWTIEIEFPEQGMPIEIQISSAGGS [r8_179_TrROS]
Value operator: =
folding stability dG unfold [kcal/mol]: 1.9

Record sequence: SAGGSAGGSAGGPELPEDVPVVEVVHLDLPFSPDEPEVVEEAEAKAAALEEGGALAEIRRSAGGSAGGSAGG [r11_519_JUSTAS]
Value operator: =
folding stability dG unfold [kcal/mol]: 0.0364

Record sequence: SAGGSAGGLRVVKPEKVVEAIRKIRELVPKNYLVIVDSIEVREEGGKLYVDIPVLVLPVPPELLSAGGSAGG [r6_819_TrMRF]
Value operator: =
folding stability dG unfold [kcal/mol]: 1.65

Record sequence: SAGGSKTVELEIEIDGKLIKIRVEENENGELTVRIEIYDKNGKKVKEIEIKVKSLEEALKALEKLLSAGGSA [r2_82_TrROS_Hall]
Value operator: =
folding stability dG unfold [kcal/mol]: 3.22

Record sequence: SAGGSAKWLPAEELADELADTLMQRHGYEIKNVDVEVIDPDEGYIRVNIEYEHPGGRHKHDIIIPVSAGGSA [r15_32_TrROS]
Value operator: =
folding stability dG unfold [kcal/mol]: 0.662

###

assay: folding stability dG unfold from trypsin proteolysis; higher = more stable
# folding stability dG unfold annotations
Measured endpoint: folding stability dG unfold (kcal/mol)

Record sequence: SALPPGTTVTYTFYDPATGALVTVTVTTLPDGTVRVTLTVYDPSTGETTTVTFTVDGATLDELLDFIRAGSA [r9_618_TrMRF]
Measured endpoint: folding stability dG unfold
Measured value: 3.77
--
Record sequence: SAGGSMIVKVTVRVDGKEYERTVEVESLEEALELELPELPEGAEVRIEVVDPETGELIETVTLRVPSAGGSA [r2_390_TrROS_Hall]
Measured endpoint: folding stability dG unfold
Measured value: 2.3
--
Record sequence: SEITIYNKGKPPPEELLEALKKAPGFPPEDLRKNTKVEPNKDGPQITIPPEQAEQMSKRNPRIMEAIRELSA [r9_160_TrROS]
Measured endpoint: folding stability dG unfold
Measured value: 1.64
--
Record sequence: SAGGGIAEILEIREFEDGVEILILTDDLDDPEIIEELIDEIAEELGLPKEKIRAHIIPADIPPLPDEESAGG [r13_430_TrMRF]
Measured endpoint: folding stability dG unfold
Measured value: 1.22
--
Record sequence: SAGGSAGGSAGGKDVRITVSPNNMRISIWKRDPNDGKWKPIGTIPMPPNDPDKALDQLKSAGGSAGGSAGGS [r10_275_TrROS]
Measured endpoint: folding stability dG unfold
Measured value: -0.216
--
Record sequence: SAGMVKAKLKVIPVTVDGKPKLYVKVELEIPGGPKFELVFETGSPEKAKELLEKLGLKVKDEDIEIEESSAG [r5_233_TrMRF]
Measured endpoint: folding stability dG unfold
Measured value: 2.83
--
Record sequence: SAGGGELYIMFKFDFTFWINNGTISFDMYIMIRIPIPPPPVPIELEDDPDGSYKYEYPNGKEHEVPNSAGGS [r16_136_TrROS]
Measured endpoint: folding stability dG unfold
Measured value: 3.15

###

assay: folding stability dG unfold (combined trypsin and chymotrypsin); higher = more stable

Record sequence: SAGGSAGGSAGGKTLSKEEALKKAKELAEKGEKVKIEVKNKKTKKTETIEITKEELEKLSAGGSAGGSAGGS [r10_779_TrROS_Hall]
Value operator: =
folding stability dG unfold / kcal/mol: 0.151
//
Record sequence: SAGGLRVHPNSLYIWIPPGGNFDDFVKEIAQELQKKGKPMEIKVEPFPDGWYWIRIKVDGKDIEIWMSAGGS [r16_771_TrROS]
Value operator: =
folding stability dG unfold / kcal/mol: 3.02
//
Record sequence: SAGVDGVKWNPESNEVSVEYEVNNQRVEQYIEPKPIPPVIVIPIDDIAERNPGLKDDLDENPGDWLVFPSAG [r5_958_TrROS]
Value operator: =
folding stability dG unfold / kcal/mol: 0.415
//
Record sequence: SAGGSAGGSAGKPLKVKKFEVELLVRDPETNRWYRIRAEVYRVEGLPDLFIIKLEIEELPSAGGSAGGSAGG [r11_1029_TrROS_Hall]
Value operator: =
folding stability dG unfold / kcal/mol: 4.6
//
Record sequence: SAGGSAGGSAKIKLENPDNMPPEELADTIAEEAREQHPDDKNIEIPFQFPNGNPWRITVDVPSAGGSAGGSA [r18_449_TrROS]
Value operator: <
folding stability dG unfold / kcal/mol: -1
//
Record sequence: SAGGSAGGSAGGAPVTVIPVKKDNPEVREKTAKELKEKAKEIDPSNIKITIEKGVVTLESAGGSAGGSAGGS [r10_182_JUSTAS]
Value operator: =
folding stability dG unfold / kcal/mol: -0.0644
//
Record sequence: SAGGSAGGSAGGFKLPPGKPIEFPIKHGGEPYPVEIWRDPNKLMIHFPGNNQWIPADDIKSAGGSAGGSAGG [r7_37_TrROS]
Value operator: =
folding stability dG unfold / kcal/mol: -0.931

###

assay: folding stability dG unfold from trypsin proteolysis; higher = more stable

Record sequence: SAGGMKVTVYPDGTVSVEIEPGQTLTVSLGDKEYTVTAEYPSITITTTPVPVPPPAVPPENVDPSLVSAGGS [r16_600_JUSTAS]
folding stability dG unfold: 1.54 kcal/mol
//
Record sequence: SAGMTIILVGPNAKEAVEKVAEELRKRDVGPPVTVLVLEPGGKPVLRARVERRPPDPDRFVVTVEPVESAGG [r19_85_TrMRF]
folding stability dG unfold: 0.689 kcal/mol
//
Record sequence: SAGGSAGGSAGGSWLVRIPGHPIIFKGPEDQAEGIARELQKNGKPIEIEIIDPDEMKKFSAGGSAGGSAGGS [r4_131_TrROS]
folding stability dG unfold: 0.286 kcal/mol
//
Record sequence: SAKTLTIEELAKKLKEELEKKTGKKLSKEELKKKALELAKKLAEEKGLKIKSVKVEEKDGKLTVTVEVESAG [r14_147_TrROS_Hall]
folding stability dG unfold: 3.2 kcal/mol

###

# folding stability dG unfold annotations
test: folding stability dG unfold (combined trypsin and chymotrypsin); higher = more stable

Record sequence: SAGGSAGGSAARAYTDVDPVPSTLPNGERVVRVTEAGTGTTSDVPLEALADLDRGAGVTVPPSAGGSAGGSA [r18_288_JUSTAS]
folding stability dG unfold / kcal/mol: -0.249
--
Record sequence: SMKKVLIVTPNPEINPEEVVKALKEKGFKEIKVFSTPEELKEALPEYDIVIIEENGKLYIKYIPPGKLAKSA [r9_750_TrMRF]
folding stability dG unfold / kcal/mol: 1.35
--
Record sequence: SAGGSAGGSAGGGIKIKIISVKPLPDGSVLVKAKIIFPDGKEKEILILFNKNGEIKIFEKSAGGSAGGSAGG [r7_860_TrMRF]
folding stability dG unfold / kcal/mol: 3.71
--
Record sequence: SAGGSSPASVRTSQTTVTDPATGRTRSVTVTTLPDGTTVSTFDSPGGSLVTTTTTPDGTTTTVTADSAGGSA [r2_109_JUSTAS]
folding stability dG unfold / kcal/mol: 1.05
--
Record sequence: SADHKFEIDINVFEHDGWRYIMIPVKYDDPQDVDEAAEKILREFGIPPNFNVNVMRSPNEVWINIRIPYSAG [r14_804_TrROS]
folding stability dG unfold / kcal/mol: 2.53
--
Record sequence: SMETLEIEITVKVEKDENGKIRKVSVEELKEELEKAGFKITEIEITEVTENTVKIKIKIEKPEEEEEEEESA [r9_225_TrROS_Hall]
folding stability dG unfold / kcal/mol: 3.25
--
Record sequence: SMKSKIEVKTVTFTFSPDDPLAKTPLEEIISEKAKKEGKKIEIPSYSYTSTDPAKGTKTYTFTVKIIKEESA [r9_107_JUSTAS]
folding stability dG unfold / kcal/mol: 0.534

###

# folding stability dG unfold annotations
assay: folding stability dG unfold (combined trypsin and chymotrypsin); higher = more stable
Measured endpoint: folding stability dG unfold (kcal/mol)

Record sequence: SMIKPGDTVTIVLKVKPEDLEKIREAVEELLRELFPDVEVESVEVNPEEENYVVITVRVDGKEITLVIERSA [r9_1079_TrROS_Hall]
Measured value: 2.5

Record sequence: SSVITNKGSLTITKTTLPDGTVVITITDPNGGRTTTITIPADSDGEATVTPTGSGNAATSTIPVSSLKLSSA [r9_1071_JUSTAS]
Measured value: 0.183

Record sequence: SAGGSAGGSAKLEYDDDYVEIEFKVPDGPIMIYIPDWGWMIWIWPGKEVTIRFPIPKPPDNSAGGSAGGSAG [r3_185_TrROS]
Measured value: 3.43

Record sequence: SAGGSAGGSAGGNFKITEPVEEYPNPNGNPIKVFTFKNPDDGPEFTFIFMPNGNWQFIPSAGGSAGGSAGGS [r10_1123_TrROS]
Measured value: 0.77
